TARGET_DESC: HSA (Homo sapiens)
Construct: HSA and Tris were obtained from Sigma-Aldrich, St. Louis, MI, USA; purchased Sigma-Aldrich
Sequence (P02768 25-609): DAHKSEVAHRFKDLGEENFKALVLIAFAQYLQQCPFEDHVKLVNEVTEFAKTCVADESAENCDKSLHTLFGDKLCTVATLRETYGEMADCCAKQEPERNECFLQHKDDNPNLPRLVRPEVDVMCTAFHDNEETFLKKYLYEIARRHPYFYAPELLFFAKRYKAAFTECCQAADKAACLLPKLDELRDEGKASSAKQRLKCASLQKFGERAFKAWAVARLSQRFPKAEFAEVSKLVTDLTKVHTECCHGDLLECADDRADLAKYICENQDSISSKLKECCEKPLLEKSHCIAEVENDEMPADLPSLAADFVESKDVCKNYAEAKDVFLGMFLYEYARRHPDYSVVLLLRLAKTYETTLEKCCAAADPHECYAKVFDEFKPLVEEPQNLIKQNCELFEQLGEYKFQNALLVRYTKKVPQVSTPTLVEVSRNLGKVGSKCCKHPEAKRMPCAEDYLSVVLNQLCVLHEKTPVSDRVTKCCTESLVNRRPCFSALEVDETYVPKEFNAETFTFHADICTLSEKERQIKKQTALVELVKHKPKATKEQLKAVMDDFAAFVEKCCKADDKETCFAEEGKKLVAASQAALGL
ASSAY_DETAILS: Site-specific competitive experiment (fluorescence) with site markers
Assay type: binding
CONDITION_SET: Ka, with Digoxigenin, [Ligands]/[Site Marker] 1:1; room temperature; n = 3
RECORDED_ENDPOINT: pKd
Scale for pKd: -log10 of concentration given in mol/L; no unit attached.

CHEMICAL_SMILES: CC(C)(c1cc(Cl)c(O)c(Cl)c1)c1cc(Cl)c(O)c(Cl)c1
EXPERIMENTAL_VALUE: 5.89

Next item in the queue.
Task: Identify pKd associated with the compound CC(C)(c1cc(Br)c(O)c(Br)c1)c1cc(Br)c(O)c(Br)c1
Result: 6.13
